assay_remarks: Ex vivo degradation of exogenous Ang II in kidney cortex lysates
Assay type: in vitro ADME, mouse
assay_context: mouse, kidney cortex lysates (ACE2 KO, with MLN-4760 (ACE2 inhibitor, 10^-6 mol/L) in the WT lysates); lysates of ACE2 KO or WT + MLN-4760 (10^-6 mol/L), 6 μg protein, Ang II 10^-9 mol/L, PBS pH 7.4 with 5 μmol/L ZnCl2, 37°C, constant shaking, up to 24 h, ELISA, n = 5; read-out: Proportion of Ang II degraded in kidney cortex lysates despite the lack of ACE2
quantity_measured: metabolised

## Input Entry CC[C@H](C)[C@H](NC(=O)[C@H](Cc1ccc(O)cc1)NC(=O)[C@@H](NC(=O)[C@H](CCCNC(=N)N)NC(=O)[C@@H](N)CC(=O)O)C(C)C)C(=O)N[C@@H](Cc1cnc[nH]1)C(=O)N1CCC[C@H]1C(=O)N[C@@H](Cc1ccccc1)C(=O)O has what metabolised?
## Output ~50%

Reference source: paper PMC4002244
